Quick record: MIC, Staphylococcus epidermidis.
One number for each entry, in µg/mL.

Parameter requested: MIC. Apply to each item below.
1. CCCCCCCC[N+](C)(C)CCOC(=O)C(C)c1ccc(CC(C)C)cc1 (stereo not shown)
2. N=C(NCCCCCCNC(=N)NC(=N)Nc1ccc(Cl)cc1)NC(=N)Nc1ccc(Cl)cc1 [Chlorexidine, Chlorexidine gluconate, reference compound]

Reply:
1: 10; 2: 10

----------
tested on: Aspergillus niger; type: cell-based; conditions: ATCC9642; Aspergillus niger ATCC 9642
For each entry below, report its MIC value.

Your task in this section: give MIC for each listed record.
1. CCCCCCCCCCCC[N+](C)(C)CCOC(=O)Cc1c(C)n(C(=O)c2ccc(Cl)cc2)c2ccc(OC)cc12 [RE 9]
2. N=C(NCCCCCCNC(=N)NC(=N)Nc1ccc(Cl)cc1)NC(=N)Nc1ccc(Cl)cc1 [Chlorexidine, Chlorexidine gluconate, reference compound]
3. CCCCCCCCCC[N+](C)(C)CCOC(=O)Cc1c(C)n(C(=O)c2ccc(Cl)cc2)c2ccc(OC)cc12 [RE 8]

Reply:
["≤ 5 µg/mL", "80 µg/mL", "≤ 5 µg/mL"]

For record CCCCCCCC[N+](C)(C)CCOC(=O)C(C)c1ccc(CC(C)C)cc1 (stereo not shown) [AF 150] the listed MIC is 10 µg/mL

----------
assay: in vivo; conditions: mouse, ip, 62.5 mg/kg
assay-metric: mortality at 336 h (%)
Numbers only, in %.

# example entries with known answers
mortality at 336 h recorded for this compound, CCCCCCCC[N+](C)(C)CCOC(=O)C(C)c1ccc(CC(C)C)cc1 (stereo not drawn) , is 100

For reference, reported mortality at 336 h for CCCCCCCCCCCC[N+](C)(C)CCOC(=O)Cc1c(C)n(C(=O)c2ccc(Cl)cc2)c2ccc(OC)cc12 stands at 83.3

API: the following record is the query input.
Just so you know, measured mortality at 336 h for CCCCCCCCCC[N+](C)(C)CCOC(=O)Cc1c(C)n(C(=O)c2ccc(Cl)cc2)c2ccc(OC)cc12 came out at 100

----------
Can you tell me MIC for the items I'm about to list?
tested on: Pseudomonas maltophilia; assay type: cell-based; conditions: Stenotrophomonas maltophilia, ATCC13637; Pseudomonas maltophilia ATCC 13637
Answer with the figure and its unit, nothing else.

Let me check: CCCCCCCC[N+](C)(C)CCOC(=O)C(C)c1ccc(CC(C)C)cc1 (stereo not shown) [AF 150] , system Pseudomonas maltophilia, measured MIC is 40 µg/mL

For every item in the list below, what is its measured MIC?
1. CCCCCCCCCCCC[N+](C)(C)CCOC(=O)Cc1c(C)n(C(=O)c2ccc(Cl)cc2)c2ccc(OC)cc12 [RE 9]
2. CCCCCCCCCC[N+](C)(C)CCOC(=O)Cc1c(C)n(C(=O)c2ccc(Cl)cc2)c2ccc(OC)cc12 [RE 8]
3. N=C(NCCCCCCNC(=N)NC(=N)Nc1ccc(Cl)cc1)NC(=N)Nc1ccc(Cl)cc1 [Chlorexidine, Chlorexidine gluconate, reference compound]

Reply:
80 µg/mL
80 µg/mL
80 µg/mL
